- Target System: human P2X2/3 receptors (Homo sapiens, UniProt P56373+Q9UBL9)
- Construct: expressed in transfected cells; host or cells: human astrocytoma 1321N1 (1312N1 [sic])
- Sequence (P56373 whole entry): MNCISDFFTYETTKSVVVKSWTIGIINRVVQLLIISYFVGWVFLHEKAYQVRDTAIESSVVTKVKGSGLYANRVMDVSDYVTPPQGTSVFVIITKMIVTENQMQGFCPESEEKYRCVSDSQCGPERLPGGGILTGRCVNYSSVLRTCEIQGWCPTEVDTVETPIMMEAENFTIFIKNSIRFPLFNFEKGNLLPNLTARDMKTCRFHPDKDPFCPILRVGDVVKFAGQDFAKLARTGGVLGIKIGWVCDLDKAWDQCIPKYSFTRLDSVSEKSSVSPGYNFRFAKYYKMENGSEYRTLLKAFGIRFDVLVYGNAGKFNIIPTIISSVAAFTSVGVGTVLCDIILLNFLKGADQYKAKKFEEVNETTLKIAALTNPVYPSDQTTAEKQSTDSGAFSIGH
- Sequence (Q9UBL9 whole entry): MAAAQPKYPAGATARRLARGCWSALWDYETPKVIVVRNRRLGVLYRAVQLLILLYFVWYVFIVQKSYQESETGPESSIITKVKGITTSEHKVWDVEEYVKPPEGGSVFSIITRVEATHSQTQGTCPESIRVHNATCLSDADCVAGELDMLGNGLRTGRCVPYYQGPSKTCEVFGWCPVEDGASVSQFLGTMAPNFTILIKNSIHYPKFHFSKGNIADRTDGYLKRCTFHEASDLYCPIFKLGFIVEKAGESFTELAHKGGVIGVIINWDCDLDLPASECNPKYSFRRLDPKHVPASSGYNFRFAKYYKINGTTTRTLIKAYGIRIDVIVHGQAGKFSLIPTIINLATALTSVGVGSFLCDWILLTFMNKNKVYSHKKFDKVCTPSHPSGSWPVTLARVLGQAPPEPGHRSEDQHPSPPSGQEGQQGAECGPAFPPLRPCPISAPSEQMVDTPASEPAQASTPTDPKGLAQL
- Assay Remarks: Intracellular calcium measurement, antagonist activity at human P2X2/3 receptors (hP2X23 1321N1), Fluo8
- Type: cell-based
- Assay Context: column 4); 1321N1 cells, human P2X2/3, Fluo8, agonist ATP at EC50; read-out: 4) hP2X2/3 IC50 [nM] (1321N1)
Endpoint: IC50

Molecule: CC(O)c1cc2n(CC(=O)Nc3ccc(F)cn3)c3c(c(=O)n2n1)CN(C(C)C)C3=O (racemic) [Example 275]
Endpoint: IC50
Test Result: > 32000 nM

Molecule: CCc1cc2n(CC(=O)Nc3ccc(F)cn3)c3c(c(=O)n2n1)CN(C1CCOCC1)C3=O [Example 94]
Endpoint: IC50
Test Result: > 23000 nM

Molecule: CCc1cc2n(CC(=O)Nc3ccc(F)cn3)c3c(c(=O)n2n1)CN(CC1CCOC1)C3=O (centres unmarked) [Example 74]
Endpoint: IC50
Test Result: > 32000 nM

Molecule: CCc1cc2n(CC(=O)Nc3ccc(F)cn3)c3c(c(=O)n2n1)CN(C[C@@H]1COCCN1)C3=O [Example 248]
Endpoint: IC50
Test Result: > 32000 nM

Molecule: COC[C@H](C)N1Cc2c(n(CC(=O)Nc3ccc(F)cn3)c3cc(C)nn3c2=O)C1=O [Example 41]
Endpoint: IC50
Test Result: > 32000 nM

Molecule: CC(C)(C)c1cc2n(CC(=O)Nc3ccc(F)cn3)c3c(c(=O)n2n1)CN(C1COC1)C3=O [Example 27]
Endpoint: IC50
Test Result: > 21000 nM

Molecule: CCc1cc2n(CC(=O)Nc3ccc(F)cn3)c3c(c(=O)n2n1)CN(CCN)C3=O [Example 245]
Endpoint: IC50
Test Result: > 21000 nM

Molecule: COC[C@H](C)N1Cc2c(n(CC(=O)Nc3ccc(F)cn3)c3cc(C(=O)NC4CC4)nn3c2=O)C1=O [Example 192]
Endpoint: IC50
Test Result: > 19600 nM

Molecule: COC[C@H](C)N1Cc2c(n(CC(=O)Nc3ccc(F)cn3)c3cc(C(=O)N(C)C)nn3c2=O)C1=O [Example 189]
Endpoint: IC50
Test Result: > 23500 nM

Molecule: CC(C)(C)c1cc2n(CC(=O)Nc3ccc(F)cn3)c3c(c(=O)n2n1)CN(C1CCC1)C3=O [Example 17]
Endpoint: IC50
Test Result: > 18100 nM

Molecule: CC[C@@H](C)N1Cc2c(n(CC(=O)Nc3ccc(C)cn3)c3cc(C(F)(F)F)nn3c2=O)C1=O [Example 16]
Endpoint: IC50
Test Result: > 100000 nM

Molecule: CC(C)N1Cc2c(n(CC(=O)Nc3ccc(F)cn3)c3cc(C(C)(C)O)nn3c2=O)C1=O [Example 88]
Endpoint: IC50
Test Result: > 23500 nM

Molecule: CC(C)N1Cc2c(n(CC(=O)Nc3ccc(F)cn3)c3cc(C(=O)N4CCN(C)CC4)nn3c2=O)C1=O [Example 188]
Endpoint: IC50
Test Result: > 32000 nM

Molecule: Cc1ccc(NC(=O)Cn2c3c(c(=O)n4nc(C(C)C)cc24)CN(C(C)C)C3=O)nc1 [Example 9]
Endpoint: IC50
Test Result: > 19900 nM

Molecule: CN(C)CCN1Cc2c(n(CC(=O)Nc3ccc(F)cn3)c3cc(C(C)(C)C)nn3c2=O)C1=O [Example 139]
Endpoint: IC50
Test Result: > 32000 nM

Molecule: C[C@H](O)CN1Cc2c(n(CC(=O)Nc3ccc(F)cn3)c3cc(C(C)(C)C)nn3c2=O)C1=O [Example 54]
Endpoint: IC50
Test Result: > 32000 nM

Molecule: CC(=O)Nc1cc2n(CC(=O)Nc3ccc(F)cn3)c3c(c(=O)n2n1)CN(C(C)C)C3=O [Example 282]
Endpoint: IC50
Test Result: > 32000 nM
